Reference for the values: ChEMBL document CHEMBL1137947

# test-system: UniProtKB P10635
# Sequence (P10635 whole entry): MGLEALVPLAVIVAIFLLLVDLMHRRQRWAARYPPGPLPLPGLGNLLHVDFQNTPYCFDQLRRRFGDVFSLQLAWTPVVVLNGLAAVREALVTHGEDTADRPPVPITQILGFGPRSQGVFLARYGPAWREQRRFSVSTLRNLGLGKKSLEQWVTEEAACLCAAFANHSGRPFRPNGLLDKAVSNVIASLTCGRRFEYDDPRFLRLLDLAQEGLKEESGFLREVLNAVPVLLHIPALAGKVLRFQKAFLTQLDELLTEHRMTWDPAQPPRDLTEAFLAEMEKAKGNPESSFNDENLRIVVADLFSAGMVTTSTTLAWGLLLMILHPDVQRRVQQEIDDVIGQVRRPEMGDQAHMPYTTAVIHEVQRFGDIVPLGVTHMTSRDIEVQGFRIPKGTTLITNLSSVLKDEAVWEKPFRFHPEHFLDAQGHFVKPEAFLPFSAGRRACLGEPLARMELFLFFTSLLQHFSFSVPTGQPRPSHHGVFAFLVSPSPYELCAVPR
# procedure-details: Inhibition of CYP450 (Cytochrome P450) 2D6
# Format: ADME
measurement-kind: pIC50
Friendly reminder that pIC50 comes from taking -log10 of the concentration in mol/L.

INPUT: UniProtKB P10635 / pIC50 / `CCN1c2ncc(CSc3cc(C)nc(C)c3)cc2C(=O)Nc2c(C)cc(F)nc21` : value?
OUTPUT: 4.57

----------
# test-system: Cytochrome P450 1A2 (Homo sapiens, UniProt P05177)
# Sequence (P05177 whole entry): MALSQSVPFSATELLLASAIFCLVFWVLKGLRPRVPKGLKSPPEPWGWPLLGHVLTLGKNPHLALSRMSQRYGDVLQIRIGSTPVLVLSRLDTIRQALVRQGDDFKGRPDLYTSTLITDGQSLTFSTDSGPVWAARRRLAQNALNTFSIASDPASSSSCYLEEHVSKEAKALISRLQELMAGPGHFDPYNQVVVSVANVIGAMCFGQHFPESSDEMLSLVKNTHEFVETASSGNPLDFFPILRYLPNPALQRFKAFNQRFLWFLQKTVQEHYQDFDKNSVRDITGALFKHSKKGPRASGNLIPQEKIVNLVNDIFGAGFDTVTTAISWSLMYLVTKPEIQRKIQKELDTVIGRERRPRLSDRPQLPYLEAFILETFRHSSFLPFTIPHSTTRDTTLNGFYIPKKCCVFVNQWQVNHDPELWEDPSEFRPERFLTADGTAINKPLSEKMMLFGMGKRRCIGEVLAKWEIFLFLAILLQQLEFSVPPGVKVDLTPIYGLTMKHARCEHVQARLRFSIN
# procedure-details: Inhibition of CYP450 (Cytochrome P450) 1A2
# Format: ADME
measurement-kind: IC50

INPUT: For `CCN1c2ncc(CSc3cc(C)nc(C)c3)cc2C(=O)Nc2c(C)ccnc21` , what is its reported IC50?
OUTPUT: > 30 µM
